Reported GLUCOSE is given for each of the following compounds.
Species on record: Rattus norvegicus
methodDescription: DrugMatrix - Regimen: Daily Repeat
Format: toxicity, organism-based, Sprague-Dawley
Design: regimen Daily Repeat, gender Male, age 6-8 weeks
conditionLabel: in vivo, po, 0 mg/kg, 72 h, tissue Plasma, route oral GAVAGE, dose level Control, time 3 day, vehicle 100 % WATER
Answer with a number only, understood to be in mg/dL.

Request: Give GLUCOSE for the following compound: NC12CC3CC(CC(C3)C1)C2 [AMANTADINE]
Result: 154.5

Request: Give GLUCOSE for the following compound: CCN(CC)CCOC(=O)C1(C2CCCCC2)CCCCC1 [DICYCLOMINE]
Result: 175

Request: Give GLUCOSE for the following compound: O=c1[nH]c(=O)n(C2CCCO2)cc1F (stereo unspecified) [TEGAFUR]
Result: 143

Request: Give GLUCOSE for the following compound: CCN(CC)CCNC(=O)c1ccc(N)cc1 [PROCAINAMIDE]
Result: 185.67

Request: Give GLUCOSE for the following compound: CNC1=Nc2ccc(Cl)cc2C(c2ccccc2)=[N+]([O-])C1 [CHLORDIAZEPOXIDE]
Result: 163

# next compound below
Request: Give GLUCOSE for the following compound: CCN(C(C)=O)c1cccc(-c2ccnc3c(C#N)cnn23)c1 [ZALEPLON]
Result: 154.5
